System: rat liver mitochondria (RLM)
Assay: Mitochondrial transmembrane electric potential (ΔΨ) of RLM, safranine fluorescence
Assay type: biochemical
Settings: succinate; 2.5 μM
Endpoint Name: Maximum potential (ΔΨ in - mV)
Give bare numbers, in mV.

Data request: Fill in Maximum potential (ΔΨ in - mV) for record CS(=O)(=O)[O-].O=C(/C=C/c1ccc(O)c(O)c1)NCCCCCC[P+](c1ccccc1)(c1ccccc1)c1ccccc1 [AntiOxCIN2]
Data returned: 190.5

I'm hoping you can list Maximum potential (ΔΨ in - mV) for every molecule here, please.
1. CS(=O)(=O)[O-].O=C(/C=C/c1ccc(O)c(O)c1)NCCCCCCCCCC[P+](c1ccccc1)(c1ccccc1)c1ccccc1 [AntiOxCIN6]
2. CS(=O)(=O)[O-].O=C(/C=C/c1cc(O)c(O)c(O)c1)NCCCCCCCCCC[P+](c1ccccc1)(c1ccccc1)c1ccccc1 [AntiOxCIN7]
3. CS(=O)(=O)[O-].O=C(/C=C/c1cc(O)c(O)c(O)c1)NCCCCCC[P+](c1ccccc1)(c1ccccc1)c1ccccc1 [AntiOxCIN4]

Data returned:
[181.9, 205.3, 192.0]
